Assay: Microsomal stability assay, liver microsome half-life (human)
Format: in vitro ADME
Settings: pH 7.4; human liver microsomes 0.5 mg/mL, 1 μM compound, 37° C.; read-out: Liver microsome T1/2 Human
Would you mind telling me the reported half-life at 1 μM of each entry?

Ask | So what's the measured half-life at 1 μM for this one? CS(=O)(=O)Nc1ncc2cc(-c3ccc(Oc4cc(Cl)c(OCCCl)c(C#N)c4)cc3)ccc2n1
Reply | > 2 h

Ask | Let us now turn to CS(=O)(=O)Nc1nccc(COCCc2cc(Cl)c(OCCCl)c(C#N)c2)n1
Reply | 0.93 h

Ask | Let us now turn to C[C@@H](Oc1ccc(C(C)(C)c2cc(Cl)c(OCCCl)c(C#N)c2)cc1)C12CC(NS(C)(=O)=O)(C1)C2
Reply | > 2 h

Ask | Let us now turn to CC(C)(c1ccc(OCc2ccnc(NS(C)(=O)=O)n2)cc1)c1ccc(OCC(O)CCl)cc1 (stereo not shown)
Reply | > 2 h

Ask | Let us now turn to CC(C)(c1ccc(-c2ccc3nc(NS(C)(=O)=O)ncc3c2)cc1)c1cc(Cl)c(OCCCl)c(C#N)c1
Reply | > 2 h

Ask | Let us now turn to CS(=O)(=O)Nc1nccc(OCC23CC(C(=O)c4cc(Cl)c(OCCCl)c(C#N)c4)(C2)C3)n1
Reply | 0.161 h

Ask | Let us now turn to CS(=O)(=O)N[C@H]1C[C@H](COc2ccc3c(ccn3-c3cc(Cl)c(OCCCl)c(C#N)c3)c2)C1
Reply | > 2 h

====

Biological target: androgen receptor (AR) (Homo sapiens, UniProt P10275, T878A)
Sequence (P10275 whole entry T878A): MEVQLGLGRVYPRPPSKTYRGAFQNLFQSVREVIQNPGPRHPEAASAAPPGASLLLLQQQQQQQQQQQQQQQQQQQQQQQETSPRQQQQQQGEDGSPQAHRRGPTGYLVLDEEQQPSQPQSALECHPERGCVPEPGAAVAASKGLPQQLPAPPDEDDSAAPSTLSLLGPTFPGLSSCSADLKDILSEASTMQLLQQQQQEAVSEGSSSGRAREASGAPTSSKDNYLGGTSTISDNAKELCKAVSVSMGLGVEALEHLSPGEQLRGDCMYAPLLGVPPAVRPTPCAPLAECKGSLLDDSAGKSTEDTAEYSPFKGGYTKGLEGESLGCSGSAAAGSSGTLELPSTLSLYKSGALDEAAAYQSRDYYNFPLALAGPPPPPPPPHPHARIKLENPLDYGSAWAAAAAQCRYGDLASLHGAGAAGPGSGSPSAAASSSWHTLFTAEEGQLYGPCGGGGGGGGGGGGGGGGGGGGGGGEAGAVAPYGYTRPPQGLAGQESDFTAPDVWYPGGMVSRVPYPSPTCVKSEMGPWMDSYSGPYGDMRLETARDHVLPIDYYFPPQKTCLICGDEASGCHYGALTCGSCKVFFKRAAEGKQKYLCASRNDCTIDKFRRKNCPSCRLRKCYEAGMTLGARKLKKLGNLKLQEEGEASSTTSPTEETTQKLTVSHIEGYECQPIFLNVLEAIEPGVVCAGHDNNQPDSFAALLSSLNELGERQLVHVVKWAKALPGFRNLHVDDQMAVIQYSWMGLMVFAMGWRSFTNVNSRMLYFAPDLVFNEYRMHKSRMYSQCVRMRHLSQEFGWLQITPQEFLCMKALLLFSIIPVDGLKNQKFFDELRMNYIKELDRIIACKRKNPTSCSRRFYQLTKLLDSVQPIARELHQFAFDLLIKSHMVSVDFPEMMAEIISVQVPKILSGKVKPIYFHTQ
Test: Androgen-induced PSA (6.1 kb)-luciferase reporter assay in LNCaP cells (R1881 1 nM)
Format: cell-based
Set-up: endogenous in cells; host or cells: LNCaP
Settings: 24 h, read-out: PSA-Luc IC50 Range
pIC50: −log10 of the molar value.
quantity: pIC50

Ask | So what's the measured pIC50 for this one? CS(=O)(=O)Nc1nccc(COc2ccc3c(ccn3-c3cc(Cl)c(OCC(Cl)(Cl)Cl)c(C#N)c3)c2)n1
Reply | < 5.70

Ask | Let us now turn to CS(=O)(=O)NCc1ccc(-c2ccc3c(ccn3-c3cc(Cl)c(OCCCl)c(C#N)c3)c2)cc1
Reply | < 5.70

Ask | Let us now turn to CS(=O)(=O)N1CCCC1COc1ccc2c(ccn2-c2cc(Cl)c(OCCCl)c(C#N)c2)c1 (stereo not drawn)
Reply | < 5.70

Ask | Let us now turn to CS(=O)(=O)N[C@@H]1CC[C@@H](Oc2ccc3c(ccn3-c3cc(Cl)c(OCCCl)c(C#N)c3)c2)C1
Reply | 5.70 to 6.30

Ask | Let us now turn to CC(=O)Nc1cnc(COc2ccc(C(C)(C)c3cc(Cl)c(OCCCl)c(C#N)c3)cc2)c(NS(C)(=O)=O)n1
Reply | > 6.30

Ask | Let us now turn to CS(=O)(=O)NC1CN(CCc2ccc3c(ccn3-c3cc(Cl)c(OCCCl)c(C#N)c3)c2)C1
Reply | 5.70 to 6.30

Ask | Let us now turn to CS(=O)(=O)NC12CC(CNc3ccc4c(ccn4-c4cc(Cl)c(OCCCl)c(C#N)c4)c3)(C1)C2
Reply | 5.70 to 6.30

Ask | Let us now turn to CC(C)(c1ccc(OCC23CC(C2)N(S(C)(=O)=O)C3)cc1)c1cc(Cl)c(OCCCl)c(C#N)c1
Reply | 5.70 to 6.30

Ask | Let us now turn to CS(=O)(=O)Nc1nccc(COc2nnc(-c3cc(Cl)c(OCCCl)c(C#N)c3)o2)n1
Reply | 5.70 to 6.30

Ask | Let us now turn to CC(C)(c1ccc(OCc2ccnc(NS(C)(=O)=O)n2)cc1)c1cc(Cl)c2c(c1)OCCO2
Reply | < 5.70

Ask | Let us now turn to CC(C)(c1ccc(OCc2ccnc(NS(C)(=O)=O)n2)cc1)c1cc(F)c(N2CC(CO)C2)c(C#N)c1
Reply | < 5.70

Ask | Let us now turn to CS(=O)(=O)N[C@H]1C[C@H](COc2ccc3c(c2)CCC3c2cc(Cl)c(OCCCl)c(C#N)c2)C1 (stereo partly drawn)
Reply | 5.70 to 6.30

Ask | Let us now turn to CS(=O)(=O)Nc1nccc(COc2ccc3c(ccn3-c3cc(Cl)c(OC4CCC4)c(C#N)c3)c2)n1
Reply | 5.70 to 6.30

Ask | Let us now turn to CS(=O)(=O)N1CCO[C@@H](COc2ccc3c(ccn3-c3cc(Cl)c(OCCCl)c(C#N)c3)c2)C1
Reply | < 5.70

Ask | Let us now turn to CC(C)(c1ccc(-c2ccc3c(cnn3S(C)(=O)=O)c2)cc1)c1cc(Cl)c(OCCCl)c(C#N)c1
Reply | < 5.70
